Values compiled from patent US20220306659A1.

We begin with a simple list: items and their reported IC50.
target: ALK^G1202R (Homo sapiens, UniProt Q9UM73, G1202R); assay: Assay of activity on ALK kinase; format: biochemical; settings: kinase inhibition
Sequence (Q9UM73 19-1620 G1202R): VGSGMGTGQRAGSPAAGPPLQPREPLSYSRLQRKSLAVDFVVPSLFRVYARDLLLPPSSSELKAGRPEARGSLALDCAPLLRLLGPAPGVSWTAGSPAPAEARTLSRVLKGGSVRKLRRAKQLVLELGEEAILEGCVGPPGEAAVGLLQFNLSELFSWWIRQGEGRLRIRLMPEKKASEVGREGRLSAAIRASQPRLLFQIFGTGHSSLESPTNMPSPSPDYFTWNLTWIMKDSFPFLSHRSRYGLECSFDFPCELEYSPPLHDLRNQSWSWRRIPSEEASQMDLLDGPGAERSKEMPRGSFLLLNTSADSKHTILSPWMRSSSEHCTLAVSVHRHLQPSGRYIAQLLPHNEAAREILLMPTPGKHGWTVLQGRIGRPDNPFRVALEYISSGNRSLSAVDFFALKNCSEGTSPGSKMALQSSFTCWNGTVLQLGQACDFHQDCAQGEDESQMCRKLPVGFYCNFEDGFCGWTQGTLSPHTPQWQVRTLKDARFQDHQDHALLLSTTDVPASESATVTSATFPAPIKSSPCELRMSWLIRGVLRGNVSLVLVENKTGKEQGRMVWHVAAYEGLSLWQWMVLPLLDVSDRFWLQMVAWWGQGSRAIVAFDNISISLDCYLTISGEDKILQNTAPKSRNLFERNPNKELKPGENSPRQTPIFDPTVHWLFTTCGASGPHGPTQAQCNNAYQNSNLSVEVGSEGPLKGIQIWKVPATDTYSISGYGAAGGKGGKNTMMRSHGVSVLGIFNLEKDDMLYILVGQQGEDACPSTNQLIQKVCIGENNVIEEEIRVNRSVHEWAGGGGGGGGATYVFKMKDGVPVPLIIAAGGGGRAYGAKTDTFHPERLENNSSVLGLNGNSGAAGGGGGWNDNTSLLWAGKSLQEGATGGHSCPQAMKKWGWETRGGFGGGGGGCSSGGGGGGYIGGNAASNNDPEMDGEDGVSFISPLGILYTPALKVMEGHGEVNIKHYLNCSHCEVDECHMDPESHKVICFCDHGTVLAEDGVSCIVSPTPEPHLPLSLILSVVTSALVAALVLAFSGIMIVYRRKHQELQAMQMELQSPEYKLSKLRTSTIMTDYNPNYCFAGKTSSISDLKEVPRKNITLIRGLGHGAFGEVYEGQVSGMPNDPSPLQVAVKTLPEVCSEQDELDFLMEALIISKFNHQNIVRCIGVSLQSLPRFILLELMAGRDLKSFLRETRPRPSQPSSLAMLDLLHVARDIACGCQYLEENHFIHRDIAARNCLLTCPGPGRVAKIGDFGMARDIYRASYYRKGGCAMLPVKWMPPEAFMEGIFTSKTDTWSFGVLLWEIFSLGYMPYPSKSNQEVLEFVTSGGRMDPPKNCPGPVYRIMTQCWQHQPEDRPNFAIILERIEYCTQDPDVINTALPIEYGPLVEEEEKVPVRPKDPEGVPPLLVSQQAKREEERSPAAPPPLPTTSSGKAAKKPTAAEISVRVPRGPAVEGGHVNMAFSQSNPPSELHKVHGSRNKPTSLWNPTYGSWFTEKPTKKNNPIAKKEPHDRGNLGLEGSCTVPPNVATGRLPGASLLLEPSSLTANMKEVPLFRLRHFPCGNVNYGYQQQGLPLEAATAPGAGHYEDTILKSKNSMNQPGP
MEASURED METRIC: IC50

[[record]]
compound = "COc1cc(N2CCC(N3CCN(CC(=O)N4CC(COc5cccc6c5C(=O)N(C5CCC(=O)NC5=O)C6=O)C4)CC3)CC2)ccc1Nc1ncc(Cl)c(Nc2ccccc2P(C)(C)=O)n1 (stereo not shown)"
value = "1 to 100 nM"

[[record]]
compound = "COc1cc(N2CCC(N3CCN(CCCCC#Cc4ccc5c(c4)CN(C4CCC(=O)NC4=O)C5=O)CC3)CC2)ccc1Nc1ncc(Cl)c(Nc2ccccc2P(C)(C)=O)n1 (stereo not shown)"
value = "201 to 300 nM"

[[record]]
compound = "COc1cc(N2CCC(N3CCN(CC(=O)N4CCC(CCOc5cccc6c5C(=O)N(C5CCC(=O)NC5=O)C6=O)CC4)CC3)CC2)ccc1Nc1ncc(Cl)c(Nc2ccccc2P(C)(C)=O)n1 (stereo not shown)"
value = "101 to 200 nM"

[[record]]
compound = "COc1cc(N2CCC(N3CCN(CCCCCCCCCOc4cccc5c4C(=O)N(C4CCC(=O)NC4=O)C5=O)CC3)CC2)ccc1Nc1ncc(Cl)c(Nc2ccccc2P(C)(C)=O)n1 (stereo not shown)"
value = "101 to 200 nM"

[[record]]
compound = "COc1cc(N2CCC(N3CCN(CCCCCCC#Cc4cccc5c4CN(C4CCC(=O)NC4=O)C5=O)CC3)CC2)ccc1Nc1ncc(Cl)c(Nc2ccccc2P(C)(C)=O)n1 (stereo not shown)"
value = "201 to 300 nM"

[[record]]
compound = "COc1cc(N2CCC(N3CCN(CC(=O)OCC4(COc5cccc6c5C(=O)N(C5CCC(=O)NC5=O)C6=O)CC4)CC3)CC2)ccc1Nc1ncc(Cl)c(Nc2ccccc2P(C)(C)=O)n1 (stereo not shown)"
value = "101 to 200 nM"

[[record]]
compound = "COc1cc(N2CCC(N3CCN(CCCCCC#Cc4cc(F)cc5c4CN(C4CCC(=O)NC4=O)C5=O)CC3)CC2)ccc1Nc1ncc(Cl)c(Nc2ccccc2P(C)(C)=O)n1 (stereo not shown)"
value = "201 to 300 nM"

[[record]]
compound = "COc1cc(N2CCC(N3CCN(CCOCC#Cc4ccc5c(c4)CN(C4CCC(=O)NC4=O)C5=O)CC3)CC2)ccc1Nc1ncc(Cl)c(Nc2ccccc2P(C)(C)=O)n1 (stereo not shown)"
value = "201 to 300 nM"

[[record]]
compound = "COc1cc(N2CCC(N3CCN(CCCCCCCNc4cccc5c4CN(C4CCC(=O)NC4=O)C5=O)CC3)CC2)ccc1Nc1ncc(Cl)c(Nc2ccccc2P(C)(C)=O)n1 (stereo not shown)"
value = "101 to 200 nM"

[[record]]
compound = "COc1cc(N2CCC(N3CCN(CCCCCCCOc4cccc5c4C(=O)N(C4CCC(=O)NC4=O)C5=O)CC3)CC2)ccc1Nc1ncc(Cl)c(Nc2ccccc2P(C)(C)=O)n1 (stereo not shown)"
value = "101 to 200 nM"


###

Each entry below lists one item and its recorded IC50 value.
biological target: EGFR^L858R/T790M/C797S (Homo sapiens, UniProt P00533, C797S/L858R/T790M); assay: EGFR inhibitory activity assay (TK-substrate-biotin/ATP, 665/615 ratio); assay type: biochemical; settings: kinase inhibition
MEASURED METRIC: IC50

[[record]]
compound = "COc1cc(N2CCC(N3CCN(CCCCCC#Cc4cccc5c4CN(C4CCC(=O)NC4=O)C5=O)CC3)CC2)ccc1Nc1ncc(Cl)c(Nc2ccccc2P(C)(C)=O)n1 (stereo not shown) [Compound C1]"
assay_system = "EGFR^L858R/T790M/C797S (Homo sapiens, UniProt P00533, C797S/L858R/T790M)"
value = "1 to 100 nM"

[[record]]
compound = "COc1cc(N2CCC(N3CCN(CC(=O)Nc4cccc5c4CN(C4CCC(=O)NC4=O)C5=O)CC3)CC2)ccc1Nc1ncc(Cl)c(Nc2ccccc2P(C)(C)=O)n1 (stereo not shown) [Compound A17]"
assay_system = "EGFR^L858R/T790M/C797S (Homo sapiens, UniProt P00533, C797S/L858R/T790M)"
value = "1 to 100 nM"

[[record]]
compound = "COc1cc(N2CCC(N3CCN(CC(=O)N4CC(Oc5cccc6c5C(=O)N(C5CCC(=O)NC5=O)C6=O)C4)CC3)CC2)ccc1Nc1ncc(Cl)c(Nc2ccccc2P(C)(C)=O)n1 (stereo not shown) [Compound C93]"
assay_system = "EGFR^L858R/T790M/C797S (Homo sapiens, UniProt P00533, C797S/L858R/T790M)"
value = "1 to 100 nM"

[[record]]
compound = "COc1cc(N2CCC(N3CCN(CCOCCOCCOCCNC(=O)COc4cccc5c4C(=O)N(C4CCC(=O)NC4=O)C5=O)CC3)CC2)ccc1Nc1ncc(Cl)c(Nc2ccccc2P(C)(C)=O)n1 (stereo not shown) [Compound A3]"
assay_system = "EGFR^L858R/T790M/C797S (Homo sapiens, UniProt P00533, C797S/L858R/T790M)"
value = "1 to 100 nM"

[[record]]
compound = "COc1cc(N2CCC(N3CCN(CC(=O)OCC4(COc5cccc6c5C(=O)N(C5CCC(=O)NC5=O)C6=O)CC4)CC3)CC2)ccc1Nc1ncc(Cl)c(Nc2ccccc2P(C)(C)=O)n1 (stereo not shown) [Compound C107]"
assay_system = "EGFR^L858R/T790M/C797S (Homo sapiens, UniProt P00533, C797S/L858R/T790M)"
value = "1 to 100 nM"

[[record]]
compound = "COc1cc(N2CCC(N3CCN(CCCCCCCC#Cc4cccc5c4CN(C4CCC(=O)NC4=O)C5=O)CC3)CC2)ccc1Nc1ncc(Cl)c(Nc2ccccc2P(C)(C)=O)n1 (stereo not shown) [Compound C178]"
assay_system = "EGFR^L858R/T790M/C797S (Homo sapiens, UniProt P00533, C797S/L858R/T790M)"
value = "1 to 100 nM"

[[record]]
compound = "COc1cc(N2CCC(N3CCN(CC(=O)N4CCC(CCOc5cccc6c5C(=O)N(C5CCC(=O)NC5=O)C6=O)CC4)CC3)CC2)ccc1Nc1ncc(Cl)c(Nc2ccccc2P(C)(C)=O)n1 (stereo not shown) [Compound C4]"
assay_system = "EGFR^L858R/T790M/C797S (Homo sapiens, UniProt P00533, C797S/L858R/T790M)"
value = "101 to 200 nM"

[[record]]
compound = "COc1cc(N2CCC(N3CCN(CCCCC#Cc4ccc5c(c4)CN(C4CCC(=O)NC4=O)C5=O)CC3)CC2)ccc1Nc1ncc(Cl)c(Nc2ccccc2P(C)(C)=O)n1 (stereo not shown) [Compound C192]"
assay_system = "EGFR^L858R/T790M/C797S (Homo sapiens, UniProt P00533, C797S/L858R/T790M)"
value = "1 to 100 nM"

[[record]]
compound = "COc1cc(N2CCC(N3CCN(CCCCC#Cc4cccc5c4CN(C4CCC(=O)NC4=O)C5=O)CC3)CC2)ccc1Nc1ncc(Cl)c(Nc2ccccc2P(C)(C)=O)n1 (stereo not shown) [Compound C116]"
assay_system = "EGFR^L858R/T790M/C797S (Homo sapiens, UniProt P00533, C797S/L858R/T790M)"
value = "1 to 100 nM"

[[record]]
compound = "COc1cc(N2CCC(N3CCN(C(=O)CCCCCCOc4cccc5c4C(=O)N(C4CCC(=O)NC4=O)C5=O)CC3)CC2)ccc1Nc1ncc(Cl)c(Nc2ccccc2P(C)(C)=O)n1 (stereo not shown) [Compound A2]"
assay_system = "EGFR^L858R/T790M/C797S (Homo sapiens, UniProt P00533, C797S/L858R/T790M)"
value = "1 to 100 nM"


###

biological target: Ba/F3(EGFR^L858R/T790M/C797S) cells (Homo sapiens, UniProt P00533, T790M/C797S/L858R, cells depend on it); test: Assay of activity on Ba/F3 cells (CTG, 72 h); type: cell-based; conditions: read-out: IC50 (nM) Ba/F3 (EGFR^L858R/T790M/C797S)
Sequence (P00533 whole entry T790M/C797S/L858R): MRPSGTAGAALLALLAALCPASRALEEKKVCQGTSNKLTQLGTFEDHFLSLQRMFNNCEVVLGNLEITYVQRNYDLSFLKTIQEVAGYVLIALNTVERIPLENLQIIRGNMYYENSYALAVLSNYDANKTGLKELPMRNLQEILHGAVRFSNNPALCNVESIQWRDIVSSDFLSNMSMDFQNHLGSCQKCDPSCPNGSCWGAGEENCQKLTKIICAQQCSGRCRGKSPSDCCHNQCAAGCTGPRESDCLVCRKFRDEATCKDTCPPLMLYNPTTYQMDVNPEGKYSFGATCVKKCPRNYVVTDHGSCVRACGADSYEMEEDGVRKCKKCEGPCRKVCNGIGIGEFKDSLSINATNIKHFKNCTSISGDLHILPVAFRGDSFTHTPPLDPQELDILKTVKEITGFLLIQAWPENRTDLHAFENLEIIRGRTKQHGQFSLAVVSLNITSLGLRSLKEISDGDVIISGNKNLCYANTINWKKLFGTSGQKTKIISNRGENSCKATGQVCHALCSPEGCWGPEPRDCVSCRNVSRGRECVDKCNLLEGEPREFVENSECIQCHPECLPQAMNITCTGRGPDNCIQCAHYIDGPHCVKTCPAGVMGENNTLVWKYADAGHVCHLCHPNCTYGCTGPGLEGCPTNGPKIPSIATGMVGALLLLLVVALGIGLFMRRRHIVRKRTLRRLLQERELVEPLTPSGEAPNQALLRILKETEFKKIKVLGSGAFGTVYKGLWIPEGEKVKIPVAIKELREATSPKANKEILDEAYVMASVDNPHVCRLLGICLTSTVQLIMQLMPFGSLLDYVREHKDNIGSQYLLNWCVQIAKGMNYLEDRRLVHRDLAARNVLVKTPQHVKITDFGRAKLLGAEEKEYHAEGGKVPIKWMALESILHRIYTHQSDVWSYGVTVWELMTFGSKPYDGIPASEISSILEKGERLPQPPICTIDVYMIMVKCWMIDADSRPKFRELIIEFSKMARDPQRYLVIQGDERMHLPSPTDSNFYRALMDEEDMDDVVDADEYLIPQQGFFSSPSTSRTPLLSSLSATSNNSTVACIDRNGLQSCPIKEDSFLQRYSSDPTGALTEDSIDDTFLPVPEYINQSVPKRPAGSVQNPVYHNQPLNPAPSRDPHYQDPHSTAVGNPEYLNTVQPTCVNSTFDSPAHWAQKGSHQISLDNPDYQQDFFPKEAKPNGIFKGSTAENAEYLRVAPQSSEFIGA
MEASURED METRIC: GI50

[[record]]
compound = "COc1cc(N2CCC(N3CCN(CCCCCCCOc4cccc5c4CN(C4CCC(=O)NC4=O)C5=O)CC3)CC2)c(C)cc1Nc1ncc(Br)c(Nc2ccc3nccnc3c2P(C)(C)=O)n1 (centres unmarked)"
value = "1 to 100 nM"

[[record]]
compound = "COc1cc(N2CCC(N3CCN(C(=O)C(C)(C)COC(=O)COc4cccc5c4C(=O)N(C4CCC(=O)NC4=O)C5=O)CC3)CC2)ccc1Nc1ncc(Cl)c(Nc2ccccc2P(C)(C)=O)n1 (centres unmarked)"
value = "201 to 300 nM"

[[record]]
compound = "COc1cc(N2CCC(N3CCN(CC4(COc5cccc6c5C(=O)N(C5CCC(=O)NC5=O)C6=O)CC4)CC3)CC2)ccc1Nc1ncc(Cl)c(Nc2ccccc2P(C)(C)=O)n1 (centres unmarked)"
value = "> 300 nM"

[[record]]
compound = "COc1cc(N2CCC(N3CCN(C(=O)CCCCCCOc4cccc5c4C(=O)N(C4CCC(=O)NC4=O)C5=O)CC3)CC2)ccc1Nc1ncc(Cl)c(Nc2ccccc2P(C)(C)=O)n1 (centres unmarked)"
value = "201 to 300 nM"

[[record]]
compound = "COc1cc(N2CCC(N3CCN(CCCCCCCOc4cccc5c4C(=O)N(C4CCC(=O)NC4=O)C5=O)CC3)CC2)c(C)cc1Nc1ncc(Br)c(Nc2ccc3nccnc3c2P(C)(C)=O)n1 (centres unmarked)"
value = "101 to 200 nM"

